The measurements presented in this section are drawn from PubChem BioAssay AID1963871.

- System: KRAS-mutant PDC multicell tumor spheroid viability
- EXPERIMENT_NOTES: Anticancer human tumor 521955-158-R2-J5-PDC patient-derived pancreatic carcinoma cell line growth inhibition [KRAS2]
- MEASUREMENT_CONTEXT: second compound 0.0316 µM; first compound 0.316 µM; stronger effect = lower value
I'd appreciate it if you could supply viability, T/C values for the items below.
One number for each entry, in %.

Worked cases, answers included:
COMPOUND: CC1(C)CCC(CN2CCN(c3ccc(C(=O)NS(=O)(=O)c4ccc(NCC5CCOCC5)c([N+](=O)[O-])c4)c(Oc4cnc5[nH]ccc5c4)c3)CC2)=C(c2ccc(Cl)cc2)C1 + C=CC(=O)N1CCN(c2nc(OCC3CCCN3C)nc3c2CCN(c2cccc4cccc(C)c24)C3)CC1CC#N
viability, T/C (%): 105
//
COMPOUND: CCN1CCN(Cc2ccc(Nc3ncc(F)c(-c4cc(F)c5nc(C)n(C(C)C)c5c4)n3)nc2)CC1 + C=CC(=O)N1CCN(c2nc(OCC3CCCN3C)nc3c2CCN(c2cccc4cccc(C)c24)C3)CC1CC#N
viability, T/C (%): 110

Parameters: items (list). Returns: viability, T/C for each item.
1. CC(C)NCC(C(=O)N1CCN(c2ncnc3c2C(C)CC3O)CC1)c1ccc(Cl)cc1 (stereo not given) + C=CC(=O)N1CCN(c2nc(OCC3CCCN3C)nc3c2CCN(c2cccc4cccc(C)c24)C3)CC1CC#N
2. O=C(c1cc(Cc2n[nH]c(=O)c3ccccc23)ccc1F)N1CCN(C(=O)C2CC2)CC1 + C=CC(=O)N1CCN(c2nc(OCC3CCCN3C)nc3c2CCN(c2cccc4cccc(C)c24)C3)CC1CC#N
3. CCNC(=O)CC1N=C(c2ccc(Cl)cc2)c2cc(OC)ccc2-n2c(C)nnc21 (stereo not given) + C=CC(=O)N1CCN(c2nc(OCC3CCCN3C)nc3c2CCN(c2cccc4cccc(C)c24)C3)CC1CC#N

Outgoing:
[84.5, 99.4, 52.9]

---

- System: KRAS-mutant PDC multicell tumor spheroid viability
- EXPERIMENT_NOTES: Anticancer human tumor 521955-158-R2-J5-PDC cell line growth inhibition [KRAS2];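 note: viability read after seven days of drug exposure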
- MEASUREMENT_CONTEXT: curve of first compound; second compound 0.1 µM
MEASUREMENT_NAME: pIC50
Numbers only, as −log10 of the molar value.

COMPOUND: CCNC(=O)CC1N=C(c2ccc(Cl)cc2)c2cc(OC)ccc2-n2c(C)nnc21 (stereo unspecified) + CC1OCC2(CCN(c3cnc(Sc4ccnc(N)c4Cl)c(N)n3)CC2)C1N
pIC50: 6.54

COMPOUND: CC(C)n1nc(-c2ccc3oc(N)nc3c2)c2c(N)ncnc21 + CC1OCC2(CCN(c3cnc(Sc4ccnc(N)c4Cl)c(N)n3)CC2)C1N
pIC50: 8.21

Kindly review the next compound as well.
Incoming: What value of pIC50 has been recorded for this entry: COC(=O)c1ccc2c(C(=Nc3ccc(N(C)C(=O)CN4CCN(C)CC4)cc3)c3ccccc3)c(O)[nH]c2c1 + C=CC(=O)N1CCN(c2nc(=O)n(-c3c(C)ccnc3C(C)C)c3nc(-c4c(O)cccc4F)c(F)cc23)C(C)C1
Outgoing: 5.76

---

- Test system: KRAS-mutant PDC multicell tumor spheroid viability
- EXPERIMENT_NOTES: Anticancer human tumor 521955-158-R2-J5-PDC cell line growth inhibition [KRAS2];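 note: viability read after seven days of drug exposure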
- MEASUREMENT_CONTEXT: second compound 1 µM; first compound 0.001 µM; stronger effect = lower value
MEASUREMENT_NAME: viability, T/C

Worked cases, answers included:
COMPOUND: Cn1ncnc1[C@H]1c2n[nH]c(=O)c3cc(F)cc(c23)N[C@@H]1c1ccc(F)cc1 + C=CC(=O)N1CCN(c2nc(=O)n(-c3c(C)ccnc3C(C)C)c3nc(-c4c(O)cccc4F)c(F)cc23)C(C)C1
RESULT: 107%

COMPOUND: Cn1ncnc1[C@H]1c2n[nH]c(=O)c3cc(F)cc(c23)N[C@@H]1c1ccc(F)cc1 + CC1OCC2(CCN(c3cnc(Sc4ccnc(N)c4Cl)c(N)n3)CC2)C1N
RESULT: 53.4%

COMPOUND: Cn1ncnc1[C@H]1c2n[nH]c(=O)c3cc(F)cc(c23)N[C@@H]1c1ccc(F)cc1 + C=CC(=O)N1CCN(c2nc(OCC3CCCN3C)nc3c2CCN(c2cccc4cccc(C)c24)C3)CC1CC#N
RESULT: 82.7%

Incoming: What value of viability, T/C has been recorded for this entry: Cn1ncnc1[C@H]1c2n[nH]c(=O)c3cc(F)cc(c23)N[C@@H]1c1ccc(F)cc1 + COc1cc2nc(C)nc(NC(C)c3cc(N)cc(C(F)(F)F)c3)c2cc1OC1CCOC1
Outgoing: 88.1%

---

- Tested on: KRAS-mutant PDC multicell tumor spheroid viability
- EXPERIMENT_NOTES: Anticancer human tumor 521955-158-R2-J5-PDC cell line growth inhibition [KRAS2];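 note: viability read after seven days of drug exposure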
- MEASUREMENT_CONTEXT: second compound 0.1 µM; first compound 0.0001 µM; stronger effect = lower value
I'd appreciate it if you could supply viability, T/C values for the items below.
Numbers only, in %.

COMPOUND: CC(=O)Nc1cccc(-n2c(=O)n(C3CC3)c(=O)c3c(Nc4ccc(I)cc4F)n(C)c(=O)c(C)c32)c1 + C=CC(=O)N1CCN(c2nc(=O)n(-c3c(C)ccnc3C(C)C)c3nc(-c4c(O)cccc4F)c(F)cc23)C(C)C1
MEASURED_ON: KRAS-mutant PDC multicell tumor spheroid viability
viability, T/C [%]: 84.6

COMPOUND: CC(=O)Nc1cccc(-n2c(=O)n(C3CC3)c(=O)c3c(Nc4ccc(I)cc4F)n(C)c(=O)c(C)c32)c1 + CC1OCC2(CCN(c3cnc(Sc4ccnc(N)c4Cl)c(N)n3)CC2)C1N
MEASURED_ON: KRAS-mutant PDC multicell tumor spheroid viability
viability, T/C [%]: 59

COMPOUND: CC(=O)Nc1cccc(-n2c(=O)n(C3CC3)c(=O)c3c(Nc4ccc(I)cc4F)n(C)c(=O)c(C)c32)c1 + C=CC(=O)N1CCN(c2nc(OCC3CCCN3C)nc3c2CCN(c2cccc4cccc(C)c24)C3)CC1CC#N
MEASURED_ON: KRAS-mutant PDC multicell tumor spheroid viability
viability, T/C [%]: 61.9

COMPOUND: CC(=O)Nc1cccc(-n2c(=O)n(C3CC3)c(=O)c3c(Nc4ccc(I)cc4F)n(C)c(=O)c(C)c32)c1 + COc1cc2nc(C)nc(NC(C)c3cc(N)cc(C(F)(F)F)c3)c2cc1OC1CCOC1
MEASURED_ON: KRAS-mutant PDC multicell tumor spheroid viability
viability, T/C [%]: 68.5

Incoming: What value of viability, T/C has been recorded for this entry: CC(=O)Nc1cccc(-n2c(=O)n(C3CC3)c(=O)c3c(Nc4ccc(I)cc4F)n(C)c(=O)c(C)c32)c1 + CNCc1ccccc1-c1csc(C(C)Nc2nc(C)nc3cc(OC)c(OC)cc23)c1
Outgoing: 70.5

---

- Test system: KRAS-mutant PDC multicell tumor spheroid viability
- EXPERIMENT_NOTES: Anticancer human tumor 521955-158-R2-J5-PDC cell line growth inhibition [KRAS2];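 note: viability read after seven days of drug exposure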
- MEASUREMENT_CONTEXT: second compound 0.1 µM; first compound 3.16 µM; stronger effect = lower value
MEASUREMENT_NAME: viability, T/C (%)
Give bare numbers, in %.

Parameters: items (list). Returns: viability, T/C for each item.
1. COc1cc2nccc(Oc3ccc(NC(=O)C4(C(=O)Nc5ccc(F)cc5)CC4)cc3)c2cc1OC + COc1cc2nc(C)nc(NC(C)c3cc(N)cc(C(F)(F)F)c3)c2cc1OC1CCOC1
2. CC1COCCN1c1cc(-c2ccnn2C)c2ccnc(-c3ccn[nH]3)c2n1 (centres undefined) + C=CC(=O)N1CCN(c2nc(=O)n(-c3c(C)ccnc3C(C)C)c3nc(-c4c(O)cccc4F)c(F)cc23)C(C)C1
3. COc1cc(Nc2ncc3c(n2)-c2ccc(Cl)cc2C(c2c(F)cccc2OC)=NC3)ccc1C(=O)O + CNCc1ccccc1-c1csc(C(C)Nc2nc(C)nc3cc(OC)c(OC)cc23)c1
4. CC1(C)CCC(CN2CCN(c3ccc(C(=O)NS(=O)(=O)c4ccc(NCC5CCOCC5)c([N+](=O)[O-])c4)c(Oc4cnc5[nH]ccc5c4)c3)CC2)=C(c2ccc(Cl)cc2)C1 + C=CC(=O)N1CCN(c2nc(=O)n(-c3c(C)ccnc3C(C)C)c3nc(-c4c(O)cccc4F)c(F)cc23)C(C)C1

Outgoing:
1: 85.6; 2: 26.9; 3: 49.2; 4: 92.3

---

I'd appreciate it if you could supply viability, T/C values for the items below.
- System: KRAS-mutant PDC multicell tumor spheroid viability
- EXPERIMENT_NOTES: Anticancer human tumor 521955-158-R2-J5-PDC cell line growth inhibition [KRAS2];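 note: viability read after seven days of drug exposure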
- MEASUREMENT_CONTEXT: second compound 1 µM; first compound 0.001 µM; stronger effect = lower value
One number for each entry, in %.

Parameters: items (list). Returns: viability, T/C for each item.
1. CN(C)C/C=C/C(=O)Nc1cc2c(Nc3ccc(F)c(Cl)c3)ncnc2cc1O[C@H]1CCOC1 + CNCc1ccccc1-c1csc(C(C)Nc2nc(C)nc3cc(OC)c(OC)cc23)c1
2. CC(=O)Nc1cccc(-n2c(=O)n(C3CC3)c(=O)c3c(Nc4ccc(I)cc4F)n(C)c(=O)c(C)c32)c1 + C=CC(=O)N1CCN(c2nc(OCC3CCCN3C)nc3c2CCN(c2cccc4cccc(C)c24)C3)CC1CC#N

Outgoing:
120
27.8

Parameters: items (list). Returns: viability, T/C for each item.
1. CC(=O)Nc1cccc(-n2c(=O)n(C3CC3)c(=O)c3c(Nc4ccc(I)cc4F)n(C)c(=O)c(C)c32)c1 + CC1OCC2(CCN(c3cnc(Sc4ccnc(N)c4Cl)c(N)n3)CC2)C1N
2. CN(C)C/C=C/C(=O)Nc1cc2c(Nc3ccc(F)c(Cl)c3)ncnc2cc1O[C@H]1CCOC1 + COc1cc2nc(C)nc(NC(C)c3cc(N)cc(C(F)(F)F)c3)c2cc1OC1CCOC1
3. Cn1ncnc1[C@H]1c2n[nH]c(=O)c3cc(F)cc(c23)N[C@@H]1c1ccc(F)cc1 + CNCc1ccccc1-c1csc(C(C)Nc2nc(C)nc3cc(OC)c(OC)cc23)c1

Outgoing:
26.9
99.6
119
